FYI, the data here is from patent US20250320312A1.

Reported OD450 is given for each of the following binders.
molecular target: BSA (UniProt P02769); assay: scFv ELISA
Sequence (P02769 25-607 limits assumed): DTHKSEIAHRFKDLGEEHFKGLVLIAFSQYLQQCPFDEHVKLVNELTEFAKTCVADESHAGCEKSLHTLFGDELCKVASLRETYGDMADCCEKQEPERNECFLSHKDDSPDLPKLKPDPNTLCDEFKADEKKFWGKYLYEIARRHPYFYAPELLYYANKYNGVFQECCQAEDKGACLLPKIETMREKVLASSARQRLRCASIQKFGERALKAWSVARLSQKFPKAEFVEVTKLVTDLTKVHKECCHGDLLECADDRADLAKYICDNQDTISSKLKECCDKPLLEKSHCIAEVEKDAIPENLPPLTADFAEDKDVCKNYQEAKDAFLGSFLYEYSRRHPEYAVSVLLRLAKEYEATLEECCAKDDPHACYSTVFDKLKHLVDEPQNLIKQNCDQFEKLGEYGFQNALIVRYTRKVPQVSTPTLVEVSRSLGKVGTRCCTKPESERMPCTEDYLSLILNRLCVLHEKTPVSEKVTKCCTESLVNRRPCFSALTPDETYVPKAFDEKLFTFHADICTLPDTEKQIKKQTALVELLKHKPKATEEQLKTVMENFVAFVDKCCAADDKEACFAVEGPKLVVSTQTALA
Report as a plain number; the unit OD450 is understood.

PcOxP_DB03_C12 (scFv, V domains shown, scFv in periplasmic extract) VH: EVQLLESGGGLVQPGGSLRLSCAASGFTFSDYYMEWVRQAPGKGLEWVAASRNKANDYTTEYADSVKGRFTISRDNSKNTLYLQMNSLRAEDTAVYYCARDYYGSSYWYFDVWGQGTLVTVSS VL: DIQMTQSPSSLSASVGDRVTITCTASESLYSSKHKVHYLAWYQQKPGKAPKLLIYGASNRYGGVPSRFSGSGSGTDFTLTISSLQPEDFATYYCAQFYSYPLTFGGGTKVEIK: 0.09
PcOxP_DB02_C09 (scFv, V domains shown, scFv in periplasmic extract) VH: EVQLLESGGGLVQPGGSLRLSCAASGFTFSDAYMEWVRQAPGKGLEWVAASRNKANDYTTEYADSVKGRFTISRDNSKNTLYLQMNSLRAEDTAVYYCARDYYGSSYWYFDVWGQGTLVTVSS VL: DIQMTQSPSSLSASVGDRVTITCTASESLYSSKHKVHYLAWYQQKPGKAPKLLIYGAGNRYIGVPSRFSGSGSGTDFTLTISSLQPEDFATYYCAQFYFYPLTFGGGTKVEIK: 0.1
PcOxP_DB03_E01 (scFv, V domains shown, scFv in periplasmic extract) VH: EVQLLESGGGLVQPGGSLRLSCAASGFTFSDYYMEWVRQAPGKGLEWVAASRNKANDYTVEYADSVKGRFTISRDNSKNTLYLQMNSLRAEDTAVYYCARDYYGSSYWYFDVWGQGTLVTVSS VL: DIQMTQSPSSLSASVGDRVTITCTASESLYSSKHKVHYLAWYQQKPGKAPKLLIYGTSNRYIGVPSRFSGSGSGTDFTLTISSLQPEDFATYYCAQFYEYPLTFGGGTKVEIK: 0.09
PcOxP_DB01_G11 (scFv, V domains shown, scFv in periplasmic extract) VH: EVQLLESGGGLVQPGGSLRLSCAASGFTFSDGYMEWVRQAPGKGLEWVAASRNKNNDYTTEYADSVKGRFTISRDNSKNTLYLQMNSLRAEDTAVYYCARDYFGSSYWYFDVWGQGTLVTVSS VL: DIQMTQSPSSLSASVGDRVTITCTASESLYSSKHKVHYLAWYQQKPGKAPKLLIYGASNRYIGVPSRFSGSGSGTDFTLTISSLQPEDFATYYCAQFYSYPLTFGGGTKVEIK: 0.09
PcOxP_DB01_D04 (scFv, V domains shown, scFv in periplasmic extract) VH: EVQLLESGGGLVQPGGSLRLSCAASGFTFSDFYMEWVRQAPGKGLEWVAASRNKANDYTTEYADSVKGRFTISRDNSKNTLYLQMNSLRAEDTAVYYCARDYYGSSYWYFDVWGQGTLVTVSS VL: DIVMTQSPDSLAVSLGERATINCTASESLWSSKHKVHYLAWYQQKPGQPPKLLIYGASNRYIGVPDRFSGSGSGTDFTLTISSLQAEDVAVYYCAQFYSYPLTFGGGTKVEIK: 0.07

Data request: Need OD450, item PcOxP_DB03_C03 (scFv, V domains shown, scFv in periplasmic extract) VH: EVQLLESGGGLVQPGGSLRLSCAASGFTFSDFYMEWVRQAPGKGLEWVAASRNKYNDYTTEYADSVKGRFTISRDNSKNTLYLQMNSLRAEDTAVYYCARDYYGSSYWYFDVWGQGTLVTVSS VL: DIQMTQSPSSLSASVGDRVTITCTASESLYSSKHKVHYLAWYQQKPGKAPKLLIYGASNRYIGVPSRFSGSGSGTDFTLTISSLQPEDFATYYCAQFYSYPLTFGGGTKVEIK
Data returned: 0.09
